Biological target: adenosine receptor (A3) (Homo sapiens, UniProt P0DMS8)
Sequence (P0DMS8 whole entry, species assumed): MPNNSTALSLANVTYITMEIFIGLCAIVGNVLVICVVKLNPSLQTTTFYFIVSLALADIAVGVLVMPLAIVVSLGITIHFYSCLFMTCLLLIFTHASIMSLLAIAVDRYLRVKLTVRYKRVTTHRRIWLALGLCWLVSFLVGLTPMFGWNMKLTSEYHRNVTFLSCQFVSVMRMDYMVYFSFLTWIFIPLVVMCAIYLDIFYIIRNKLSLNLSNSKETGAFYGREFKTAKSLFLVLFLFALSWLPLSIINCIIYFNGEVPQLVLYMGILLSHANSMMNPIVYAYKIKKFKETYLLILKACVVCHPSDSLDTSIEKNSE
Test: Binding at the adenosine receptor (A3) and selectivities
Conditions: ratio A3/A2
Listed here: items and their measured selectivity A3/A2.

compound: O=c1[nH]cnc2nn(Cc3ccccc3C(F)(F)F)cc12 [Example 5]
assayed-system: adenosine receptor (A3) (Homo sapiens, UniProt P0DMS8)
value-relation-sign: =
selectivity A3/A2: 0.007
//
compound: Cc1ccccc1Cn1cc2c(=O)[nH]cnc2n1 [Example 6]
assayed-system: adenosine receptor (A3) (Homo sapiens, UniProt P0DMS8)
value-relation-sign: =
selectivity A3/A2: 0.08
//
compound: S=c1[nH]cnc2nn(Cc3ccccc3Br)cc12 [Example 16]
assayed-system: adenosine receptor (A3) (Homo sapiens, UniProt P0DMS8)
value-relation-sign: <
selectivity A3/A2: 0.001
//
compound: O=c1[nH]cnc2nn(Cc3ccc(Cl)cc3Cl)cc12 [Example 11]
assayed-system: adenosine receptor (A3) (Homo sapiens, UniProt P0DMS8)
value-relation-sign: =
selectivity A3/A2: 0.01
//
compound: COc1ccc(Cn2cc3c(=O)[nH]cnc3n2)cc1 [Example 12]
assayed-system: adenosine receptor (A3) (Homo sapiens, UniProt P0DMS8)
value-relation-sign: =
selectivity A3/A2: 0.01
//
compound: O=c1[nH]cnc2nn(Cc3c(F)cccc3Cl)cc12 [Example 9]
assayed-system: adenosine receptor (A3) (Homo sapiens, UniProt P0DMS8)
value-relation-sign: =
selectivity A3/A2: 0.004
//
compound: O=c1[nH]cnc2nn(Cc3c(Cl)cccc3Cl)cc12 [Example 10]
assayed-system: adenosine receptor (A3) (Homo sapiens, UniProt P0DMS8)
value-relation-sign: =
selectivity A3/A2: 0.02
//
compound: S=c1[nH]cnc2nn(Cc3ccccc3Cl)cc12 [Example 15]
assayed-system: adenosine receptor (A3) (Homo sapiens, UniProt P0DMS8)
value-relation-sign: <
selectivity A3/A2: 0.001
//
compound: O=c1[nH]cnc2nn(Cc3ccccc3Br)cc12 [Example 3]
assayed-system: adenosine receptor (A3) (Homo sapiens, UniProt P0DMS8)
value-relation-sign: =
selectivity A3/A2: 0.005
//
compound: O=c1[nH]cnc2nn(Cc3ccccc3Cl)cc12 [Example 2]
assayed-system: adenosine receptor (A3) (Homo sapiens, UniProt P0DMS8)
value-relation-sign: =
selectivity A3/A2: 0.06
//
compound: O=c1[nH]cnc2nn(Cc3ccccc3I)cc12 [Example 4]
assayed-system: adenosine receptor (A3) (Homo sapiens, UniProt P0DMS8)
value-relation-sign: <
selectivity A3/A2: 0.0005
//
compound: O=c1[nH]cnc2nn(Cc3ccccc3F)cc12 [Example 1]
assayed-system: adenosine receptor (A3) (Homo sapiens, UniProt P0DMS8)
value-relation-sign: =
selectivity A3/A2: 0.01
//
compound: O=c1[nH]cnc2nn(Cc3cc4c(cc3Cl)OCO4)cc12 [Example 13]
assayed-system: adenosine receptor (A3) (Homo sapiens, UniProt P0DMS8)
value-relation-sign: =
selectivity A3/A2: 0.02
//
compound: S=c1[nH]cnc2nn(Cc3ccccc3I)cc12 [Example 17]
assayed-system: adenosine receptor (A3) (Homo sapiens, UniProt P0DMS8)
value-relation-sign: <
selectivity A3/A2: 0.001

----------
Listed here: items and their measured logP.
Experiment: Octanol/water partition coefficient
observed-property: logP

smi: O=c1[nH]cnc2nn(Cc3ccccc3F)cc12
recorded-number: 0.2
//
smi: S=c1[nH]cnc2nn(Cc3ccccc3Cl)cc12
recorded-number: 1.54
//
smi: Cc1ccccc1Cn1cc2c(=O)[nH]cnc2n1
recorded-number: 0.75
//
smi: O=c1[nH]cnc2nn(Cc3c(F)cccc3F)cc12
recorded-number: 0.18
//
smi: O=c1[nH]cnc2nn(Cc3cc4c(cc3Cl)OCO4)cc12
recorded-number: 1.21
//
smi: COc1ccc(Cn2cc3c(=O)[nH]cnc3n2)cc1
recorded-number: 0.62

----------
Assay: in vivo
Conditions: rat, po

smi: S=c1[nH]cnc2nn(Cc3ccccc3Cl)cc12
TD50: > 460 mg/kg
//
smi: O=c1[nH]cnc2nn(Cc3ccccc3Cl)cc12
TD50: > 250 mg/kg

----------
Listed here: items and their measured selectivity A3/A1.
Molecular target: adenosine receptor (A3) (Homo sapiens)
Assay: Binding at the adenosine receptor (A3) and selectivities
Settings: ratio A3/A1

compound: O=c1[nH]cnc2nn(Cc3ccc(Cl)cc3Cl)cc12 [Example 11]
selectivity A3/A1: 0.04

compound: Cc1ccccc1Cn1cc2c(=O)[nH]cnc2n1 [Example 6]
selectivity A3/A1: 0.01

compound: O=c1[nH]cnc2nn(Cc3ccccc3Br)cc12 [Example 3]
selectivity A3/A1: 0.008

compound: O=c1[nH]cnc2nn(Cc3ccccc3F)cc12 [Example 1]
selectivity A3/A1: 0.7

----------
Target: adenosine receptor (A3) (Homo sapiens, UniProt P0DMS8)
Assay: Binding at the adenosine receptor (A3) and selectivities
Details: ratio A3/A1
Rule for this label: TRUE means selectivity A3/A1 is less than 0.02; FALSE means selectivity A3/A1 is at least 0.02.

smi: S=c1[nH]cnc2nn(Cc3ccccc3I)cc12
classification: TRUE

smi: S=c1[nH]cnc2nn(Cc3ccccc3Br)cc12
classification: TRUE

smi: O=c1[nH]cnc2nn(Cc3c(F)cccc3Cl)cc12
classification: TRUE

smi: O=c1[nH]cnc2nn(Cc3ccccc3I)cc12
classification: TRUE

smi: COc1ccc(Cn2cc3c(=O)[nH]cnc3n2)cc1
classification: FALSE

smi: O=c1[nH]cnc2nn(Cc3cc4c(cc3Cl)OCO4)cc12
classification: FALSE

smi: O=c1[nH]cnc2nn(Cc3ccccc3C(F)(F)F)cc12
classification: TRUE

smi: S=c1[nH]cnc2nn(Cc3ccccc3Cl)cc12
classification: TRUE

----------
Biological target: adenosine receptor (A3) (Homo sapiens, UniProt P0DMS8)
pKi: −log10 of the molar value.
Kind request: treat 6 as inclusive, so pKi at 6 or higher is Yes, anything lower is No.

molecule: Cc1ccccc1Cn1cc2c(=O)[nH]cnc2n1 [Example 6]
assayed-system: adenosine receptor (A3) (Homo sapiens, UniProt P0DMS8)
classification: No
--
molecule: S=c1[nH]cnc2nn(Cc3ccccc3Cl)cc12 [Example 15]
assayed-system: adenosine receptor (A3) (Homo sapiens, UniProt P0DMS8)
classification: Yes
--
molecule: O=c1[nH]cnc2nn(Cc3ccccc3Cl)cc12 [Example 2]
assayed-system: adenosine receptor (A3) (Homo sapiens, UniProt P0DMS8)
classification: No
--
molecule: O=c1[nH]cnc2nn(Cc3c(Cl)cccc3Cl)cc12 [Example 10]
assayed-system: adenosine receptor (A3) (Homo sapiens, UniProt P0DMS8)
classification: No
--
molecule: O=c1[nH]cnc2nn(Cc3ccccc3I)cc12 [Example 4]
assayed-system: adenosine receptor (A3) (Homo sapiens, UniProt P0DMS8)
classification: Yes
--
molecule: O=c1[nH]cnc2nn(Cc3ccccc3F)cc12 [Example 1]
assayed-system: adenosine receptor (A3) (Homo sapiens, UniProt P0DMS8)
classification: No
--
molecule: O=c1[nH]cnc2nn(Cc3ccccc3Br)cc12 [Example 3]
assayed-system: adenosine receptor (A3) (Homo sapiens, UniProt P0DMS8)
classification: Yes

----------
Test system: maximal electroshock
Test: Maximal electroshock (MES), anticonvulsive action, mouse i.p.
Type: in vivo
Details: ip; mouse i.p., 100 mg/kg; read-out: Action, MES (protected animals)
Listed here: items and their measured responders at 100 mg/kg.

compound: O=c1[nH]cnc2nn(Cc3ccccc3Br)cc12
unit: %
responders at 100 mg/kg: 100
--
compound: S=c1[nH]cnc2nn(Cc3ccccc3I)cc12
unit: %
responders at 100 mg/kg: 30
--
compound: O=c1[nH]cnc2nn(Cc3cc4c(cc3Cl)OCO4)cc12
unit: %
responders at 100 mg/kg: 30
--
compound: FC(F)(F)c1ccccc1Cn1cc2c(=S)[nH]cnc2n1
unit: %
responders at 100 mg/kg: 100
--
compound: O=c1[nH]cnc2nn(Cc3ccccc3Cl)cc12
unit: %
responders at 100 mg/kg: 100
--
compound: O=c1[nH]cnc2nn(Cc3c(Cl)cccc3Cl)cc12
unit: %
responders at 100 mg/kg: 60
--
compound: S=c1[nH]cnc2nn(Cc3ccccc3Br)cc12
unit: %
responders at 100 mg/kg: 30
--
compound: COc1ccc(Cn2cc3c(=O)[nH]cnc3n2)cc1
unit: %
responders at 100 mg/kg: 15
--
compound: S=c1[nH]cnc2nn(Cc3ccccc3Cl)cc12
unit: %
responders at 100 mg/kg: 100
--
compound: O=c1[nH]cnc2nn(Cc3ccc(Cl)cc3Cl)cc12
unit: %
responders at 100 mg/kg: 100
--
compound: NC(=O)N1c2ccccc2C=Cc2ccccc21 [Carbamazepine, reference compound]
unit: %
responders at 100 mg/kg: 100

----------
Listed here: items and their measured logP.
Test: Octanol/water partition coefficient

smi: O=c1[nH]cnc2nn(Cc3c(Cl)cccc3Cl)cc12
logP: 1.16
//
smi: O=c1[nH]cnc2nn(Cc3ccccc3I)cc12
logP: 0.74
//
smi: O=c1[nH]cnc2nn(Cc3ccccc3Cl)cc12
logP: 1.01
//
smi: S=c1[nH]cnc2nn(Cc3ccccc3Br)cc12
logP: 1.2
//
smi: O=c1[nH]cnc2nn(Cc3cccc(C(F)(F)F)c3)cc12
logP: 1
